Below, each entry is listed with its recorded DP1 Relative to Tre.
- target-under-test: prostaglandin D2 (PGD2) receptor 1 (DP1) (Homo sapiens, UniProt Q13258)
- Sequence (Q13258 1-359): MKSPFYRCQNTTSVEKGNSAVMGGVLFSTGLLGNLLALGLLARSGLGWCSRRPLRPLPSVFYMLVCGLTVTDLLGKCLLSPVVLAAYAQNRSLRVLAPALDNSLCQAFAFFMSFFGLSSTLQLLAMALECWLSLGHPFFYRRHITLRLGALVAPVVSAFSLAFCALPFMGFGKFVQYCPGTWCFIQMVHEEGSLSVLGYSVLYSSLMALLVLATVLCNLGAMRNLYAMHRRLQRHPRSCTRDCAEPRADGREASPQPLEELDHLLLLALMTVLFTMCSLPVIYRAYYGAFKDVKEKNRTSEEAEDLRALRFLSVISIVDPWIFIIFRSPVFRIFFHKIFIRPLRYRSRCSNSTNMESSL
- protocol-text: DP1 receptor cAMP agonist assay (HEK293T cells)
- Format: cell-based
- assay-setup: Table 22; relative to treprostinil EC50 values; * partial agonists or ambiguous dose-response curves
The figure you give is taken to be in x; do not add the unit.

Past entries and their recorded results:
                                   compound                         target_under_test     measurement_type  measured_value
0  CCCCC[C@H](O)CC[C@@H]1[C@H]2Cc3cccc(OCC(=O)OCC)c3C[C@H]2C[C@H]1O [Treprostinil ethyl ester, reference compound]  prostaglandin D2 (PGD2) receptor 1 (DP1) (Homo sapiens, UniProt Q13258)  DP1 Relative to Tre              18
1  CCCCCC(CCC1C(O)CC2Cc3c(cccc3OCC(=O)O)CC21)OC(=O)C(C)C (stereo not drawn) [Prodrug LXVII]  prostaglandin D2 (PGD2) receptor 1 (DP1) (Homo sapiens, UniProt Q13258)  DP1 Relative to Tre             184

QUERY: Looking for the measured DP1 Relative to Tre of CCCCCC(CCC1C(OC(=O)CC)CC2Cc3c(cccc3OCC(=O)O)CC21)OC(=O)CC (stereo not drawn) [Prodrug LXX, treprostinil dipropionate] , can you help?
RESULT: 410

* * *

Below, each entry is listed with its recorded Treprostinil Concentration 15 min.
- protocol-text: Stability in liver microsomes, dog
The figure you give is taken to be in µM; do not add the unit.

Past entries and their recorded results:
In [3]: df
Out[3]:
                                   compound                   measurement_type  measured_value
0  CCCCCC(CCC1C(O)CC2Cc3c(cccc3OCC(=O)O)CC21)OC(=O)CC (stereo not shown) [Prodrug LV]  Treprostinil Concentration 15 min           0.961
1  CCCCCC(CCC1C(O)CC2Cc3c(cccc3OCC(=O)O)CC21)OP(=O)(O)O (stereo not shown) [Prodrug VI]  Treprostinil Concentration 15 min            0.32

QUERY: Looking for the measured Treprostinil Concentration 15 min of CCCCCC(CCC1C(O)CC2Cc3c(cccc3OCC(=O)O)CC21)OC(C)=O (stereo not shown) [Prodrug XLIII] , can you help?
RESULT: 0.917

QUERY: Looking for the measured Treprostinil Concentration 15 min of CCCCCC(CCC1C(OC(=O)CC)CC2Cc3c(cccc3OCC(=O)O)CC21)OC(=O)CC (stereo not shown) [Prodrug LXX, treprostinil dipropionate] , can you help?
RESULT: 1.26

Taken from patent US12491170B2.
